target: T1, TGFβ1 (R&D Systems); assay: SPR full titration
T1 construct: also called TGFB1
T1 sequence (P01137 279-390): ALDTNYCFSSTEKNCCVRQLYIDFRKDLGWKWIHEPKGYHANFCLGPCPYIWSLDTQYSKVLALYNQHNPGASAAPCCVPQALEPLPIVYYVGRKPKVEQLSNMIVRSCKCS
Rule: Kd below 3 nM gives Criterion met. Equal to or above 3 nM gives Criterion not met.

BINDER	GROUP
affinity matured HcLb 266 (antibody, V domains shown, full IgG; also called canHcLb/55SW/100DY/30IM/31TK/28TI/57SM + canHcLb/237ND/242TS) VH: EVQLVQSGAEVKKPGASVKVSCKTSGYIFMKYWMNWVRQAPGAGLDWMGQIFPAWGMTNYNEMFEGRVTLTADTSTSTAYMELSSLRAGDIAVYYCARGYGNYALDAMDYWGQGTLVTVSS VL: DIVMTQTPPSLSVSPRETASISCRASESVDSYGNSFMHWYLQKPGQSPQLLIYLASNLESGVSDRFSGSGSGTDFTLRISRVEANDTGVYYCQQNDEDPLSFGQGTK	Criterion met
affinity matured HcLb 257 (antibody, V domains shown, full IgG; also called canHcLb/55SW/100DY/30IM/31TK + canHcLb/237ND/242TS) VH: EVQLVQSGAEVKKPGASVKVSCKTSGYTFMKYWMNWVRQAPGAGLDWMGQIFPAWGSTNYNEMFEGRVTLTADTSTSTAYMELSSLRAGDIAVYYCARGYGNYALDAMDYWGQGTLVTVSS VL: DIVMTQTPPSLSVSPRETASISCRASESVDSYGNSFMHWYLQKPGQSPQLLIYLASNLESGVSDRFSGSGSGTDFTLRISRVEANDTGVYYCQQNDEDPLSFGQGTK	Criterion met
affinity matured HcLb 258 (antibody, V domains shown, full IgG; constant regions not restated) VH: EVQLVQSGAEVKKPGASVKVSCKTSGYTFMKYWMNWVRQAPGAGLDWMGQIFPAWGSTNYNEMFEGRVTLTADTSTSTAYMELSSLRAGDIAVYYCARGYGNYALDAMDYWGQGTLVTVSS VL: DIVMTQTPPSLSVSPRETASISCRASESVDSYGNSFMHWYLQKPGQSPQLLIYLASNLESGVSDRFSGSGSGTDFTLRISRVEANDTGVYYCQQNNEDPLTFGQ	Criterion not met
affinity matured HcLb 189 (antibody, V domains shown, full IgG; also called canHcLb/S55W/D100Y + canHcLb/237ND/242TS) VH: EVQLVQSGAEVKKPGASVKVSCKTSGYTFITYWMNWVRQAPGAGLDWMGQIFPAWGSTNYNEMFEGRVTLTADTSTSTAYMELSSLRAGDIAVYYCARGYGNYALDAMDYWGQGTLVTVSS VL: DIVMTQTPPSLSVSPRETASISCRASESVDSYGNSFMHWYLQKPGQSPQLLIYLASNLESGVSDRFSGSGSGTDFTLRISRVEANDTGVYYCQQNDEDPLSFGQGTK	Criterion met
affinity matured HcLb 261 (antibody, V domains shown, full IgG; constant regions not restated) VH: EVQLVQSGAEVKKPGASVKVSCKTSGYTFMTYWMNWVRQAPGAGLDWMGQIFPAWGSTNYNEMFEGRVTLTADTSTSTAYMELSSLRAGDIAVYYCARGYGNYALDAMDYWGQGTLVTVSS VL: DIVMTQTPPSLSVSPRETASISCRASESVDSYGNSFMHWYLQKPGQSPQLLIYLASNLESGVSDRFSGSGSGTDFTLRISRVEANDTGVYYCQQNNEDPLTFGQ	Criterion not met
